Data origin: PubChem BioAssay (NCI)

system: SK-OV-3 ovarian; test: NCI tumour cell line growth inhibition, 48 h
Endpoint: TGI

Example entries begin here.
{"Molecule": "COc1cc2ccc1OCc1cccc(n1)COc1ccc(cc1OC)C=Nc1ccc(cc1)N=C2", "Study Target": "SK-OV-3 ovarian", "Endpoint": "TGI", "Result": "> 100 µM"}
{"Molecule": "O=C(O)[C@@H](Cc1ccc2ccccc2c1)NC(=O)n1c2ccccc2c2ccccc21", "Study Target": "SK-OV-3 ovarian", "Endpoint": "TGI", "Result": "44.5 µM"}

Hello, I would appreciate it if you could give TGI for each entry below.
1. CCOC(=O)/C=C(\C(=O)OCC)n1ccc(=O)n(Cc2cn(COCCOC(C)=O)nn2)c1=O
2. CSC1=Nc2ccccc2N=C(c2ccc(Cl)cc2)C1
3. O=[N+]([O-])c1ccc(-c2ccc(-c3csc(Nc4ccccc4)n3)o2)cc1
4. CC12CCCC3(CC(=O)C(C)(C)C3C(=O)C1)C2 (stereo not drawn)
5. CC(C)CCC1(CCN)C(=O)NC(=O)NC1=O
6. COc1nc(C#CC(C)(C)C)nc(OC)n1

Reply:
1. > 100 µM
2. > 100 µM
3. > 100 µM
4. > 100 µM
5. > 100 µM
6. > 100 µM
